# method description: Shake flask n-octanol/deionized water partition (lipophilicity)
# Type: physicochemical
# Concentration, aqueous ions listing for each entry below
Kindly provide the numeric value in µM only, without the unit symbol.

Task: Concentration, aqueous ions lookup needed for [Mn+2].[O-]c1ccccc1N=Cc1ccc(N2CCOCC2)cc1.[O-]c1ccccc1N=Cc1ccc(N2CCOCC2)cc1.c1ccc(-c2ccccn2)nc1 , thanks.
Output: 238

Task: Likewise for [Co+2].[O-]c1ccccc1N=Cc1ccc(N2CCOCC2)cc1.[O-]c1ccccc1N=Cc1ccc(N2CCOCC2)cc1.c1ccc(-c2ccccn2)nc1 ?
Output: 56.6

Task: Again, but for Oc1ccccc1N=Cc1ccc(N2CCOCC2)cc1
Output: 789

Task: Request: [Ni+2].[O-]c1ccccc1N=Cc1ccc(N2CCOCC2)cc1.[O-]c1ccccc1N=Cc1ccc(N2CCOCC2)cc1.c1ccc(-c2ccccn2)nc1
Output: 35.7

* * *

# Test system: CT-DNA
# method description: DNA binding by UV-vis absorption titration
# condition label: pH 7.4, 25 °C
Listing of recorded Kb, WS-II (Wolfe–Shimmer method II) by entry.

Known Kb, WS-II (Wolfe–Shimmer method II) results, listed for orientation:
Task: Given [Co+2].[O-]c1ccccc1N=Cc1ccc(N2CCOCC2)cc1.[O-]c1ccccc1N=Cc1ccc(N2CCOCC2)cc1.c1ccc(-c2ccccn2)nc1 , state its recorded Kb, WS-II (Wolfe–Shimmer method II).
Output: 21379 M⁻¹

Task: Repeat with [Mn+2].[O-]c1ccccc1N=Cc1ccc(N2CCOCC2)cc1.[O-]c1ccccc1N=Cc1ccc(N2CCOCC2)cc1.c1ccc(-c2ccccn2)nc1
Output: 20826 M⁻¹

Task: Consider next the molecule Oc1ccccc1N=Cc1ccc(N2CCOCC2)cc1 in the same way.
Output: 15480 M⁻¹

Others:
Task: For [Ni+2].[O-]c1ccccc1N=Cc1ccc(N2CCOCC2)cc1.[O-]c1ccccc1N=Cc1ccc(N2CCOCC2)cc1.c1ccc(-c2ccccn2)nc1 , what is its reported Kb, WS-II (Wolfe–Shimmer method II)?
Output: 21275 M⁻¹

* * *

# Tested on: EB–DNA
# method description: EB–DNA competitive fluorescence emission titration
# Format: binding
# condition label: EB–DNA, τ0 = 10^−8 s
# Experimental: Titrations were performed for all tested compounds (1–200 μM) with pre-incubated EB-bound DNA and the intensity variations between 510 nm and 610 nm were carefully monitored in the presence and absence of DNA (200 μM) during the initial emission and excitation by EB.[31] Fluorescence emission spectral titration is an efficient approach to evaluating the binding properties of DNA/BSA biomolecules. […] As a result, strong fluorescence is only seen on surfaces facing the excitation beam.
measurement kind: Kq (SV method I), DNA (M⁻¹ s⁻¹)
Kindly answer with a numeric value in M⁻¹ s⁻¹, unit omitted.

Task: Fill blank: measured Kq (SV method I), DNA of the compound [Co+2].[O-]c1ccccc1N=Cc1ccc(N2CCOCC2)cc1.[O-]c1ccccc1N=Cc1ccc(N2CCOCC2)cc1.c1ccc(-c2ccccn2)nc1 is ____.
Output: 2.8863e+12

Task: What about [Mn+2].[O-]c1ccccc1N=Cc1ccc(N2CCOCC2)cc1.[O-]c1ccccc1N=Cc1ccc(N2CCOCC2)cc1.c1ccc(-c2ccccn2)nc1 ?
Output: 1.6755e+12

Task: Param item: Oc1ccccc1N=Cc1ccc(N2CCOCC2)cc1
Output: 1.1636e+12

Pending compound:
Task: Given the entry [Ni+2].[O-]c1ccccc1N=Cc1ccc(N2CCOCC2)cc1.[O-]c1ccccc1N=Cc1ccc(N2CCOCC2)cc1.c1ccc(-c2ccccn2)nc1 , report its measured Kq (SV method I), DNA.
Output: 1.6879e+12
